Assay: Plasma exposure, oral bioavailability and tolerability after single-dose IV, SQ and PO administration
Conditions: in vivo
Where a SMILES comes first, the peptide text is derived from it. [ ]: non-standard residue; d: D form. NMeL = CN[C@@H](CC(C)C)C(=O)O; Sar = CNCC(=O)O
assayMetric: bioavailability

{"compound": "CC[C@@H](C)[C@H]1NC(=O)[C@@H]2CCCN2C(=O)[C@@H]([C@H](C)CC)NC(=O)CN(C)C(=O)[C@H](CC(C)C)NC(=O)[C@@H](Cc2ccccc2)NC(=O)[C@H](CC(C)C)N(C)C(=O)[C@H]2CCCN2C(=O)[C@@H](CC(C)C)NC(=O)[C@H](CC(C)C)NC(=O)[C@H]2CCCN2C1=O [Design D11.2] (cyclo(L[Sar][dI]P[dI][dP]L[dL][dP][NMeL][dF]))", "assayMetric": "bioavailability", "reported": "7.5 to 11%"}

###

Test: Pharmacokinetics of D10.1 after PO, SQ and IV dosing in mice
Details: female, Balb/C, mouse, plasma, sc, 12.2 mg/kg

{"compound": "CC[C@H](C)[C@@H]1NC(=O)[C@@H](CC(C)C)NC(=O)[C@H](CC(C)C)N(C)C(=O)[C@H](Cc2ccccc2)NC(=O)CN(C)C(=O)[C@@H]2CCCN2C(=O)[C@H](C(C)C)NC(=O)[C@H](Cc2ccccc2)N(C)C(=O)[C@H]2CCCN2C(=O)[C@H](CC(C)C)NC1=O [Design D10.1, lILp*FVP*GF*L]", "level at time molar at 1 h [µM]": 3.93}

###

Assay: in vivo
Conditions: male, Swiss Albino, mouse, iv, 1 mg/kg, Plasma concentration
Where a SMILES comes first, the peptide text is derived from it. [ ]: non-standard residue; d: D form. dNMeI = CC[C@@H](C)[C@@H](NC)C(=O)O; NMeL = CN[C@@H](CC(C)C)C(=O)O
assayMetric: level at 1 h (ng/mL)

{"compound": "CC[C@@H](C)[C@H]1NC(=O)[C@H]([C@@H](C)CC)NC(=O)[C@H](CC(C)C)N(C)C(=O)[C@H]2CCCN2C(=O)[C@@H]([C@H](C)CC)NC(=O)[C@@H]([C@H](C)CC)N(C)C(=O)[C@H](CC(C)C)NC(=O)[C@H]2CCCN2C(=O)[C@@H]2CCCN2C(=O)[C@H](C(C)C)NC(=O)[C@H]2CCCN2C1=O [Design D11.3, VPpL*iip*LIip] (cyclo(I[dI][dP]VP[dP]L[dNMeI][dI][dP][NMeL]))", "assayMetric": "level at 1 h", "outputUnit": "ng/mL", "reported": 1140}

###

Details: PAMPA
Where a SMILES comes first, the peptide text is derived from it. [ ]: non-standard residue; d: D form. NMeF = CN[C@@H](Cc1ccccc1)C(=O)O; dNMeF = CN[C@H](Cc1ccccc1)C(=O)O; NMeL = CN[C@@H](CC(C)C)C(=O)O; dNMeL = CN[C@H](CC(C)C)C(=O)O; NMeA = CN[C@@H](C)C(=O)O; dNMeA = CN[C@H](C)C(=O)O; Aib = CC(C)(N)C(=O)O; Sar = CNCC(=O)O
assayMetric: PAMPA_Papp_Avg (apparent permeability) (×10⁻⁶ cm/s)

{"molecule": "CC(C)C[C@@H]1NC(=O)[C@@H]2CCCN2C(=O)[C@H]2CCCN2C(=O)[C@H](CC(C)C)NC(=O)[C@H](C)N(C)C(=O)[C@H]2CCCN2C(=O)[C@@H](CC(C)C)NC1=O [Design D7.6, lp*ALpPL] (cyclo(L[dL][dP][NMeA]L[dP]P))", "reported": 3.62}
{"molecule": "CC(C)[C@@H]1NC(=O)[C@@H]2CCCN2C(=O)[C@@H]2CCCN2C(=O)[C@@H](Cc2ccccc2)NC(=O)[C@@H]2CCCN2C(=O)[C@@H](Cc2ccccc2)NC1=O [Design D6.5, PPVfPf] (cyclo(PPV[dF]P[dF]))", "reported": 2.41}
{"molecule": "CC[C@@H](C)[C@H]1NC(=O)[C@@H](Cc2ccccc2)NC(=O)[C@@H](CC(C)C)NC(=O)[C@@H]2CCCN2C(=O)[C@H]2CCCN2C(=O)[C@H](CC(C)C)NC(=O)[C@H](CC(C)C)NC(=O)[C@@H](CC(C)C)N(C)C(=O)[C@H](C)N(C)C(=O)[C@H]2CCCN2C1=O [Design D10.34, fip*A*lLLpPl] (cyclo([dL][dF][dI][dP][NMeA][dNMeL]LL[dP]P))", "reported": 4.51}
{"molecule": "CC(C)C[C@@H]1C(=O)N[C@@H](C)C(=O)N[C@H](CC(C)C)C(=O)N2CCC[C@H]2C(=O)N[C@H](C)C(=O)N2CCC[C@@H]2C(=O)N2CCC[C@H]2C(=O)N[C@H](C(C)C)C(=O)N[C@H](CC(C)C)C(=O)N(C)[C@H](CC(C)C)C(=O)N1C [Design D10.43, apPvl*l*LAlP] (cyclo([dV][dL][dNMeL][dNMeL]A[dL]P[dA][dP]P))", "reported": 0.161}
{"molecule": "CC(C)C[C@@H]1NC(=O)[C@@H](CC(C)C)N(C)C(=O)[C@@H]2CCCN2C(=O)[C@H](CC(C)C)N(C)C(=O)[C@@H](C)NC(=O)[C@@H](CC(C)C)N(C)C(=O)[C@@H]2CCCN2C(=O)CN(C)C(=O)[C@H](CC(C)C)N(C)C(=O)[C@H](Cc2ccccc2)NC1=O [Design D10.57, *L*GP*la*LP*lLF] (cyclo(F[NMeL][Sar]P[dNMeL][dA][NMeL]P[dNMeL]L))", "reported": 3.05}
{"molecule": "CC[C@@H](C)[C@H]1NC(=O)[C@H]2CCCN2C(=O)[C@@H]2CCCN2C(=O)[C@@H](CC(C)C)NC(=O)[C@H](C)NC(=O)[C@@H](CC(C)C)N(C)C(=O)[C@@H](C)N(C)C(=O)[C@@H]2CCCN2C(=O)[C@@H]([C@H](C)CC)NC(=O)[C@@H](CC(C)C)N(C)C1=O [Design D10.39, P*a*lAlPpi*li] (cyclo(A[dL]P[dP][dI][dNMeL][dI]P[dNMeA][dNMeL]))", "reported": 1.48}
{"molecule": "CC[C@@H](C)[C@H]1NC(=O)[C@@H](CC(C)C)NC(=O)C(C)(C)NC(=O)[C@@H]2CCCN2C(=O)[C@@H]([C@H](C)CC)NC(=O)[C@@H](CC(C)C)NC(=O)C(C)(C)NC(=O)[C@@H]2CCCN2C1=O [Design D8.2, PBliPBLi] (cyclo([Aib][dL][dI]P[Aib][dL][dI]P))", "reported": 7.49}
{"molecule": "CC[C@H](C)[C@@H]1NC(=O)[C@H]2CCCN2C(=O)[C@@H]2CCCN2C(=O)[C@H](CC(C)C)NC(=O)[C@@H](C(C)C)NC(=O)[C@@H](CC(C)C)N(C)C(=O)[C@@H]2CCCN2C1=O [Design D7.1, P*lvLPpI] (cyclo(IP[dNMeL][dV]LP[dP]))", "reported": 2.93}
{"molecule": "CC(C)C[C@@H]1C(=O)N(C)[C@H](Cc2ccccc2)C(=O)N(C)[C@@H](CC(C)C)C(=O)N[C@H](C(C)C)C(=O)N[C@H](C)C(=O)N2CCC[C@@H]2C(=O)N2CCC[C@H]2C(=O)N[C@H](C)C(=O)N1C [Design D8.20, Pa*l*f*Lvap] (cyclo([dA][dNMeL][dNMeF][NMeL][dV][dA][dP]P))", "reported": 1.08}
{"molecule": "CC[C@H](C)[C@@H]1NC(=O)[C@H]2CCCN2C(=O)[C@@H]2CCCN2C(=O)[C@H](C(C)C)NC(=O)[C@@H](C(C)C)NC(=O)[C@H](Cc2ccccc2)N(C)C(=O)[C@H]2CCCN2C(=O)[C@@H](CC(C)C)N(C)C(=O)[C@@H](CC(C)C)NC1=O [Design D9.42, pIl*lp*FvVP] (cyclo(I[dL][dNMeL][dP][NMeF][dV]VP[dP]))", "reported": 1.12}
{"molecule": "CC[C@@H](C)[C@H]1NC(=O)[C@H](Cc2ccccc2)NC(=O)[C@@H](CC(C)C)N(C)C(=O)[C@@H]2CCCN2C(=O)[C@@H](C(C)C)NC(=O)[C@@H](C)N(C)C(=O)[C@H]2CCCN2C(=O)[C@@H](CC(C)C)NC(=O)[C@H](CC(C)C)NC(=O)[C@@H]2CCCN2C1=O [Design D10.30, P*lFiPLlp*av] (cyclo(F[dI]PL[dL][dP][dNMeA][dV]P[dNMeL]))", "reported": 4.78}
{"molecule": "CC(C)C[C@@H]1C(=O)N(C)[C@H](CC(C)C)C(=O)N2CCC[C@H]2C(=O)N[C@H](CC(C)C)C(=O)N2CCC[C@@H]2C(=O)N2CCC[C@@H]2C(=O)N(C)[C@H](CC(C)C)C(=O)N[C@H](Cc2ccccc2)C(=O)N[C@@H](C)C(=O)N1C [Design D9.18, A*l*lPlpp*lf] (cyclo(A[dNMeL][dNMeL]P[dL][dP][dP][dNMeL][dF]))", "reported": 1.76}
{"molecule": "CC(C)C[C@H]1C(=O)N2CCC[C@@H]2C(=O)N[C@@H](Cc2ccccc2)C(=O)N2CCC[C@H]2C(=O)N[C@H](C(C)C)C(=O)N[C@H](Cc2ccccc2)C(=O)N1C (single isomer, unassigned) [Design D6.9.p2, vf*LpFP]", "reported": 6.77}
